# target_or_test_system: T1, naked peptide FNFTDFYCEK (human)
# T1 peptide: FNFTDFYCEK
# assay_explanation: ELISA naked peptide; scFv 1 ug/mL; repI
OD450 values for the binders below.
Report as a plain number; the unit OD is understood.

Worked cases, OD450 given:
>>> readout_value("Comparative antibody 3 (Comp-3) scFv, SR_92R (Somovilla-Crespo et al. 2018), His-tagged (scFv) scFv: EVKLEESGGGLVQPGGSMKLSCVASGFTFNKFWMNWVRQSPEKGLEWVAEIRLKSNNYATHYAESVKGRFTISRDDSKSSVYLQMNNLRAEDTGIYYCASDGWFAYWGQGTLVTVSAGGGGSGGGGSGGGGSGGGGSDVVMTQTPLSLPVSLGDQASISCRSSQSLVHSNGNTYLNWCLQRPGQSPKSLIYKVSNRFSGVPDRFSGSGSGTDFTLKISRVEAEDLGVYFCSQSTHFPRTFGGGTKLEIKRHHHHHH")
0.05
>>> readout_value("Comparative antibody 1 (Comp-1) scFv, SEQ ID NO: 10 from WO2023/037125 A1, His-tagged (scFv) scFv: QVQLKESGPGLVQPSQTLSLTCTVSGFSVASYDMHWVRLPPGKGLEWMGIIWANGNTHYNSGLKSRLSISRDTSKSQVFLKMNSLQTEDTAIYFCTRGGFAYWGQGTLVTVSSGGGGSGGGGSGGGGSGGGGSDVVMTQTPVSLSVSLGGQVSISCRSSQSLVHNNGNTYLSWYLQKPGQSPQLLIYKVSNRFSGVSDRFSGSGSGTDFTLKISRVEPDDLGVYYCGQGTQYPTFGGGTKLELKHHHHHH")
0.02
>>> readout_value("Comparative antibody 2 (Comp-2) scFv, 243LO326 (VH SEQ ID NO: 51 and VL SEQ ID NO: 52 of WO 2022/195028 A2), His-tagged (scFv) scFv: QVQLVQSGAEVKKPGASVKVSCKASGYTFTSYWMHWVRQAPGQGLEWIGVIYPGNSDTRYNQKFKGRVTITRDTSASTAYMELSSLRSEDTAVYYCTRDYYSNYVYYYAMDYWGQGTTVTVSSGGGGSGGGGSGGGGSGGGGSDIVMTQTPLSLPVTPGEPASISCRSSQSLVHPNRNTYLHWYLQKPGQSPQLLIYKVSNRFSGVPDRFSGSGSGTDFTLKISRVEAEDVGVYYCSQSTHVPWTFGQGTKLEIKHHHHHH")
0.03

What does the record list as OD450 for CCR9_HUM2 scFv (humanized anti-CCR9 scFv, SEQ ID NO: 17 with C-terminal 6xHis tag) (scFv) scFv: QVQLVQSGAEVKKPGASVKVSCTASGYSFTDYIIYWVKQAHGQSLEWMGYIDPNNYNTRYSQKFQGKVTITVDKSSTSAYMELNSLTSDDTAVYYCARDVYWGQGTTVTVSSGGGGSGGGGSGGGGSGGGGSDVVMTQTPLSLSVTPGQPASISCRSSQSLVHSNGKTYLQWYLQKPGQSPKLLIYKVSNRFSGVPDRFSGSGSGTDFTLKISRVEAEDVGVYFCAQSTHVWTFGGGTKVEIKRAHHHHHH ? 0.04
